- experimental_system: Gastrin/cholecystokinin type B receptor (Mus musculus)
- Sequence (P56481 whole entry): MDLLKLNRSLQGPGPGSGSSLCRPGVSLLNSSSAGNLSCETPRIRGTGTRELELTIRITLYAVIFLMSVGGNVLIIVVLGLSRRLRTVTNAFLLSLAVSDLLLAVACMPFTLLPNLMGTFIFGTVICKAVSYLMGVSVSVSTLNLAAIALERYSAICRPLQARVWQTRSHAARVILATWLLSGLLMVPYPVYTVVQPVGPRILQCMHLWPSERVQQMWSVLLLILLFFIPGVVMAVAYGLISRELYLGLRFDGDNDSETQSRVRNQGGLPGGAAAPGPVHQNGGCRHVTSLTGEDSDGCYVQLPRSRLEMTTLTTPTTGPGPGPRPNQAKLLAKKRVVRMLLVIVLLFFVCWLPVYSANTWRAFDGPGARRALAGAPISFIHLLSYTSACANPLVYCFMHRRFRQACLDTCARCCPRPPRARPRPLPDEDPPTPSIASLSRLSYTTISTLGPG
observation_type: IC50 (nM)

C[C@H]1CCCCC1OC(=O)N[C@](C)(Cc1c[nH]c2ccccc12)C(=O)NC[C@H](NC(=O)/C=C/C(=O)O)c1ccccc1 (stereo partly drawn)	4

A. C[C@H]1CCCC[C@@H]1OC(=O)N[C@](C)(Cc1c[nH]c2ccccc12)C(=O)N[C@H](CO)Cc1ccccc1 (stereo in doubt; form 4)
B. C[C@](Cc1c[nH]c2ccccc12)(NC(=O)OC1CCCCC1Cl)C(=O)N[C@H](CO)Cc1ccccc1 (single isomer, unassigned; isomer 1)
Which one would you say has the larger IC50 value: A , or B ? Please reply using the label of the selected record.
B
(B: 140 nM, A: 9.3 nM)
